Each recorded value in this set is attributed to ChEMBL document CHEMBL4513216.

# protocol-notes: Toxicity liver stage against HepG2, at 10uM
# Type: cell-based
# Design: test concentration 10 uM, cell line HepG2-A16-CD81EGFP
# cond: human, HepG2-A16-CD81EGFP cells; read-out: INHIBITION
reported-metric: cytotoxicity at 10 µM (%)
Express it in %; write the number only.

Example entries and their recorded answers appear below.
molecule	obs-value
Cc1nc(C2CCCN(C(=O)c3ccc(OCC4CC4)nc3)C2)no1 (configuration not stated)	-4.41
Cc1nc(N(C)C2CCCCC2)ncc1C(C)NC(=O)c1cscn1 (configuration not stated)	-134
O=C(Nc1cc(C2CCOCC2)[nH]n1)c1cc[nH]n1	-3.43
NS(=O)(=O)CCN1CCOC(c2ccsc2)C1 (configuration not stated)	5.31

Prompt: Requested read-out: cytotoxicity at 10 µM. Entry: "c1cncc(OC[C@]23COC[C@H]2CN(C2CCC2)C3)c1"
Completion: 4.64

Prompt: Requested read-out: cytotoxicity at 10 µM. Entry: CCc1noc(C(C)N2CCN(CC)CC2)n1 (configuration not stated)
Completion: -6.01

* * *

Listing: cytotoxicity at 10 µM of selected molecules
# protocol-notes: Toxicity liver stage against HepG2, at 10uM
# Type: cell-based
# Parameters: test concentration 10 uM, cell line HepG2-A16-CD81EGFP
# cond: human, HepG2-A16-CD81EGFP cells; read-out: INHIBITION
Express it in %; write the number only.

molecule	readout-units	obs-value
COCc1ncn2c1CN(S(=O)(=O)c1cccc(F)c1)CC2	%	4.06

Prompt: Requested read-out: cytotoxicity at 10 µM. Entry: "COCCNC(=O)Cn1cc(OCc2ccccc2)c(=O)cc1CO"
Completion: -7.44

* * *

Listing: cytotoxicity at 10 µM of selected compounds
# protocol-notes: Toxicity liver stage against HepG2, at 10uM
# Assay type: cell-based
# Design: test concentration 10 uM, cell line HepG2-A16-CD81EGFP
# cond: human, HepG2-A16-CD81EGFP cells; read-out: INHIBITION
Express it in %; write the number only.

compound	cytotoxicity at 10 µM (%)
CCc1oc2ccc(NS(C)(=O)=O)cc2c1C(=O)OC	6.8
CS(=O)(=O)c1cncnc1C1CCCN(C(=O)NCc2ccccc2)C1 (centres undefined)	-0.375

Then there is this compound:
Prompt: Requested read-out: cytotoxicity at 10 µM. Entry: "CCOc1ccc(C#N)cc1NCC(=O)OC"
Completion: -19.2

* * *

# protocol-notes: Toxicity liver stage against HepG2, at 10uM
# Format: cell-based
# Design: test concentration 10 uM, cell line HepG2-A16-CD81EGFP
# cond: human, HepG2-A16-CD81EGFP cells; read-out: INHIBITION
Listing: cytotoxicity at 10 µM of selected molecules
Express it in %; write the number only.

Example entries and their recorded answers appear below.
molecule	cytotoxicity at 10 µM, %
CC(C)(C)S(=O)(=O)c1ccc(N2CCN(c3ccccn3)CC2)nn1	-3.3
CC(C)n1[nH]c(=O)c2c1NC(=O)CC2c1cccc2cccnc12 (stereo not drawn)	2.83
CC(C)NC(=O)CC(C)NC(=O)N(C)Cc1cc(Cl)cn1C (stereo not drawn)	-0.414
CS(=O)(=O)N1CCC(CSc2ccccc2)C1 (stereo not drawn)	1.58
CCOc1cccc(NC(=O)c2cc[nH]n2)n1	3.51

Prompt: Requested read-out: cytotoxicity at 10 µM. Entry: "COCCCN1C(=O)CC[C@H]2CN(c3nc4ccccc4s3)CC[C@H]21"
Completion: -9.59

Prompt: Requested read-out: cytotoxicity at 10 µM. Entry: "Cc1ccsc1C(=O)Nc1ccc(N2CCC(O)CC2)c(C#N)c1"
Completion: 33.2

Prompt: Requested read-out: cytotoxicity at 10 µM. Entry: Cc1nc2c(c(NCC(c3cccnc3)N3CCOCC3)n1)CCNC2 (stereo not drawn)
Completion: -11.1

Prompt: Requested read-out: cytotoxicity at 10 µM. Entry: "CCCC(=O)N1CCN(c2cc(-n3cnc(C)c3C)nc(C)n2)CC1"
Completion: -1.89

Prompt: Requested read-out: cytotoxicity at 10 µM. Entry: "Cc1ncccc1O[C@H]1CCN(C(=O)c2cccs2)CC[C@@H]1O"
Completion: 0.719

Prompt: Requested read-out: cytotoxicity at 10 µM. Entry: "O=C1CC2(CCN(Cc3ccc(C(F)(F)F)nc3)CC2)CN1"
Completion: -6.33

Prompt: Requested read-out: cytotoxicity at 10 µM. Entry: "N#Cc1ncn(CCS(=O)(=O)c2ccc(Br)cc2)n1"
Completion: -17.2

Prompt: Requested read-out: cytotoxicity at 10 µM. Entry: COCC1CCN(C(=O)c2cc(-c3ccco3)nc3c(Cl)cccc23)C1 (stereo not drawn)
Completion: 1.12

Prompt: Requested read-out: cytotoxicity at 10 µM. Entry: "COc1cc(NC(=O)NCc2ccccn2)cc(OC)c1"
Completion: -4.13

Prompt: Requested read-out: cytotoxicity at 10 µM. Entry: COc1ncccc1CNC1CCc2c(ccc(=O)n2C)C1 (stereo not drawn)
Completion: -103

Prompt: Requested read-out: cytotoxicity at 10 µM. Entry: "CC(C)Nc1nc2c(c(NC3CC3)n1)CN(C(=O)c1ccncc1)CC2"
Completion: -2.29

Prompt: Requested read-out: cytotoxicity at 10 µM. Entry: "CN1CCC(N2CCOC[C@H](OCC(=O)N(C)C)C2)CC1"
Completion: 1.44

Prompt: Requested read-out: cytotoxicity at 10 µM. Entry: CCn1nccc1S(=O)(=O)N1CCC2(CCCN(C(C)C)C2=O)C1 (stereo not drawn)
Completion: -10.9

Prompt: Requested read-out: cytotoxicity at 10 µM. Entry: CN1CC(=O)N(c2cnn(C)c2)CC12CCN(Cc1cccnc1)C2 (stereo not drawn)
Completion: -1.69

Prompt: Requested read-out: cytotoxicity at 10 µM. Entry: "CCCc1cc(=O)[nH]c2nnc(SCC(=O)NC(C)(C)C)n12"
Completion: 9.57

Prompt: Requested read-out: cytotoxicity at 10 µM. Entry: "O=C(C1CCN(S(=O)(=O)N2CCCC2)CC1)N1CCC2(CC1)OCCO2"
Completion: -17.9

Prompt: Requested read-out: cytotoxicity at 10 µM. Entry: "O=C(N[C@@H]1CN(c2ncccn2)C[C@@H]2CCCO[C@@H]21)c1ccnnc1"
Completion: 6.32

Prompt: Requested read-out: cytotoxicity at 10 µM. Entry: O=S(=O)(NCCn1cc(C2CCOC2)nn1)c1ccc(Cl)cc1 (stereo not drawn)
Completion: -4.89
